# target.or.system: DNA topoisomerase 2-alpha (Homo sapiens) (UniProt P11388)
# Sequence (P11388 whole entry): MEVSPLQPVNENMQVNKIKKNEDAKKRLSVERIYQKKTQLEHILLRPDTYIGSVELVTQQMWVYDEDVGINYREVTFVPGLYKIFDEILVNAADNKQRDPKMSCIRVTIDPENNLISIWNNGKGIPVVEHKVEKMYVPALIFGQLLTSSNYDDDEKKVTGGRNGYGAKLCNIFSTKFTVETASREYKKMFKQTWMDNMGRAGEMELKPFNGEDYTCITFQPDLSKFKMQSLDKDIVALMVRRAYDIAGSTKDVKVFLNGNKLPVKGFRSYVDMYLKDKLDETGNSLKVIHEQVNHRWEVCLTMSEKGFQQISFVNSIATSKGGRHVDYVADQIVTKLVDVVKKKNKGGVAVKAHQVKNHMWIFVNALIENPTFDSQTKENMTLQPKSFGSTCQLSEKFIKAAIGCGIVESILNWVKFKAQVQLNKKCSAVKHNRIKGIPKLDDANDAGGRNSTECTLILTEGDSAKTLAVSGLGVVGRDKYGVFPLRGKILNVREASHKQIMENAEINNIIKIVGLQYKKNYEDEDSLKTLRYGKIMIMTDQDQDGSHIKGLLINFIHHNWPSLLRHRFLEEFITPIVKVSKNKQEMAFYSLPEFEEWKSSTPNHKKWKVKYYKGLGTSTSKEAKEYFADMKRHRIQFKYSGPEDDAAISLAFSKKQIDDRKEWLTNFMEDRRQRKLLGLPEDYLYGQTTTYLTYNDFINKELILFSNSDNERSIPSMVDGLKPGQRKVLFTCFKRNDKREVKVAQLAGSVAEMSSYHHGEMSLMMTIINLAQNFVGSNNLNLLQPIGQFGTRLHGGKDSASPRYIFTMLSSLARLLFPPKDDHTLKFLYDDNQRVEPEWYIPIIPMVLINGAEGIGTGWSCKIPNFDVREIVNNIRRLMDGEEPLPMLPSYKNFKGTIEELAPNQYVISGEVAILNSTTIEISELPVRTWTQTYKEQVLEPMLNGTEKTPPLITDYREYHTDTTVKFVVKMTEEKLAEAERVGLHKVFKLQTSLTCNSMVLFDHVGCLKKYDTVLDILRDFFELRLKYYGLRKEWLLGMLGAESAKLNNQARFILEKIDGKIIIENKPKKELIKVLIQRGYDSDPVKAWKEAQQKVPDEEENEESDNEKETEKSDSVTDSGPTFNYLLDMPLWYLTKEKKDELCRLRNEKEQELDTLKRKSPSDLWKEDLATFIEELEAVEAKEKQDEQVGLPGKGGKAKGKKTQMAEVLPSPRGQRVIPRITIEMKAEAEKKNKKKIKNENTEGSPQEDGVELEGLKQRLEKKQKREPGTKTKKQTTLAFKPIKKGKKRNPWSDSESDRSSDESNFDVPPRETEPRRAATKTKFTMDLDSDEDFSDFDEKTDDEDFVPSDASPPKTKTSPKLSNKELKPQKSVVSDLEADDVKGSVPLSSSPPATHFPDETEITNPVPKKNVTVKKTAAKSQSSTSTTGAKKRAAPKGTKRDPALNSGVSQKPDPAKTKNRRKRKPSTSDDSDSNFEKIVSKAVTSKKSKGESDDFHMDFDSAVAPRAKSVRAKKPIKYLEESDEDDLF
# test.method.notes: Inhibition of topoisomerase 2 alpha catalytic activity assessed as decatenation of kinetoplast DNA at 100 uM after 15 mins by agarose gel electrophoresis
Activity calls are given as the source filed them. The calls are words filed in the database; no cut-off is given here.
Valid outcomes are listed here; reply with one: y (active), n (inactive)

{"columns": ["compound", "answer.label"],
 "data": [
  ["C=C(C)[C@@H]1CC[C@]2(C(O)=S)CC[C@]3(C)[C@H](CC[C@@H]4[C@@]5(C)CC[C@H](OP(=S)(S)c6ccc(OC)cc6)C(C)(C)[C@@H]5CC[C@]43C)[C@@H]12 (stereo not given in full)", "y"],
  ["CC1(C)[C@@H](O)CC[C@]2(C)[C@H]3CC[C@@H]4[C@H]5[C@H]([C@]6(C)CO6)CC[C@]5(C(=O)O)CC[C@@]4(C)[C@]3(C)CC[C@@H]12", "n"],
  ["C=CCNC(=O)O[C@H]1CC[C@]2(C)[C@H]3CC[C@@H]4[C@H]5[C@H](C(=C)C)CC[C@]5(C(=O)O)CC[C@@]4(C)[C@]3(C)CC[C@H]2C1(C)C", "y"],
  ["C=C(C)[C@@H]1CC[C@]2(C(=O)NS(=O)(=O)c3ccccc3)CC[C@]3(C)[C@H](CC[C@@H]4[C@@]5(C)CC[C@H](OC(=O)NS(=O)(=O)c6ccccc6)C(C)(C)[C@@H]5CC[C@]43C)[C@@H]12", "y"],
  ["C[C@H](C=O)[C@@H]1CC[C@]2(C(=O)O)CC[C@]3(C)[C@H](CC[C@@H]4[C@@]5(C)CC[C@H](O)C(C)(C)[C@@H]5CC[C@]43C)[C@@H]12", "n"],
  ["C=C(C)[C@@H]1CC[C@]2(C(=O)O)CC[C@]3(C)[C@H](CC[C@@H]4[C@@]5(C)CCC(=O)C(C)(C)[C@@H]5CC[C@]43C)[C@@H]12 [BETUNOLIC ACID]", "n"],
  ["COc1cc([C@@H]2c3cc4c(cc3[C@@H](O[C@@H]3O[C@@H]5CO[C@@H](C)O[C@H]5[C@H](O)[C@H]3O)[C@H]3COC(=O)[C@H]23)OCO4)cc(OC)c1O [ETOPOSIDE]", "y"],
  ["C=C(C)[C@@H]1CC[C@]2(C(O)=S)CC[C@]3(C)[C@H](CC[C@@H]4[C@@]5(C)CCC(=O)C(C)(C)[C@@H]5CC[C@]43C)[C@@H]12", "n"]
]}

Query :: Could you check what this test reported for C=C(C)[C@@H]1CC[C@]2(C(=O)O)CC[C@]3(C)[C@H](CC[C@@H]4[C@@]5(C)CC[C@H](OC(=O)Nc6ccc(-c7ccccc7)cc6)C(C)(C)[C@@H]5CC[C@]43C)[C@@H]12 ?
Result :: y

Query :: Could you check what this test reported for C=C(C)[C@@H]1CC[C@]2(C(=O)O)CC[C@]3(C)[C@H](CC[C@@H]4[C@@]5(C)CC[C@H](OC(=O)Nc6cccc7ccccc67)C(C)(C)[C@@H]5CC[C@]43C)[C@@H]12 ?
Result :: y

Query :: Could you check what this test reported for C=C(C=O)[C@@H]1CC[C@]2(C(=O)O)CC[C@]3(C)[C@H](CC[C@@H]4[C@@]5(C)CC[C@H](O)C(C)(C)[C@@H]5CC[C@]43C)[C@@H]12 ?
Result :: n

Query :: Could you check what this test reported for C=C(C)[C@@H]1CC[C@]2(C(O)=S)CC[C@]3(C)[C@H](CC[C@@H]4[C@@]5(C)CC[C@H](O)C(C)(C)[C@@H]5CC[C@]43C)[C@@H]12 ?
Result :: y

Query :: Could you check what this test reported for C=C(C)[C@@H]1CC[C@]2(C(=O)O)CC[C@]3(C)[C@H](CC[C@@H]4[C@@]5(C)CC[C@H](OS(=O)(=O)c6ccccc6)C(C)(C)[C@@H]5CC[C@]43C)[C@@H]12 ?
Result :: y

Query :: Could you check what this test reported for C=C(C)[C@@H]1CC[C@]2(C(=O)O)CC[C@]3(C)[C@H](CC[C@@H]4[C@@]5(C)CC[C@H](OC(=O)NCc6ccccc6)C(C)(C)[C@@H]5CC[C@]43C)[C@@H]12 ?
Result :: y

Query :: Could you check what this test reported for C=C(C)[C@@H]1CC[C@]2(C(=O)O)CC[C@]3(C)[C@H](CC[C@@H]4[C@@]5(C)CC[C@H](O)C(C)(C)[C@@H]5CC[C@]43C)[C@@H]12 [BETULINIC ACID] ?
Result :: n
